- target: CDK2/Cyclin A complex (Homo sapiens)
- test_protocol: CDK2/Cyclin A assay
- Assay type: biochemical
- experimental_setup: 1.0 μM; combinatorial library compounds
Please respond with reported inhibition at 1 µM for every item in the list.
Response body: numeric value in %, unit text excluded.

Assign inhibition at 1 µM to the following record: CCCCCc1ccc(-c2csc(-c3sc(Nc4ccc(N(C)C)cc4)nc3N)n2)cc1
-6

Complete the entry with inhibition at 1 µM for CN(C)c1ccc(Nc2nc(N)c(-c3nc(-c4ccc(O)cc4)cs3)s2)cc1
26.6

Give the reported value of inhibition at 1 µM for this record: CC(C)c1ccc(Nc2nc(N)c(-c3nc(-c4cc(Br)c(Cl)s4)cs3)s2)cc1
26

Let me know recorded inhibition at 1 µM for Cc1ccc(-c2csc(-c3sc(Nc4ccc(C(C)C)cc4)nc3N)n2)c(C)c1 , thanks.
23.3

Respond only with inhibition at 1 µM recorded for CN(C)c1ccc(Nc2nc(N)c(-c3nc(-c4cc5cc(Cl)ccc5o4)cs3)s2)cc1
16.9

The reported measurements were obtained from patent US6620828B2.
